- measurement target: ERα (Homo sapiens)
- Construct: expressed in transfected cells
- Sequence (P03372 whole entry, species assumed): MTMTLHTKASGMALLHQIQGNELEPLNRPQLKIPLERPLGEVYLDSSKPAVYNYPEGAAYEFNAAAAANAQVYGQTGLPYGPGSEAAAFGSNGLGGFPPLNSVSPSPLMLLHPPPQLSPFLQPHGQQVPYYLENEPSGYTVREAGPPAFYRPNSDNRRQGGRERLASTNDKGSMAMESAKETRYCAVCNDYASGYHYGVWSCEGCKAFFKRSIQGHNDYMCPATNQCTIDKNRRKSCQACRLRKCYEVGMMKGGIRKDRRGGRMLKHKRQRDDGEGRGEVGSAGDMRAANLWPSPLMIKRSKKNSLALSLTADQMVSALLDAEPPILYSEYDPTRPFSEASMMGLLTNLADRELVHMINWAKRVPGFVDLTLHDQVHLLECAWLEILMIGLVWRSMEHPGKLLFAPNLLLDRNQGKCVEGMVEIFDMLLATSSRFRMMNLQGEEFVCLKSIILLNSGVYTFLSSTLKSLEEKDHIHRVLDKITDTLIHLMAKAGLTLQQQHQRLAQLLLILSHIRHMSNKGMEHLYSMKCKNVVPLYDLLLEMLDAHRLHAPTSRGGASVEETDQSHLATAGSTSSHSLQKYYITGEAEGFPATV
- experiment notes: Counterscreening, Firefly signal with ERα transient transfection (Firefly_ERa)
- Format: cell-based
- measurement setup: 40 uM
readout name: Firefly ERalpha transient, cmpd/DMSO (mean)

>>> result_value("CCOC(=O)Cc1sc(Nc2nc(C)cc(C)n2)nc1-c1ccccc1 [Compound 28]")
0.6

P. COc1ccc2nc(C(F)(F)F)c(C#N)c(NCCOc3ccc(Cl)cc3)c2c1 [Compound Z40]
Q. COc1ccc2nc(C(F)(F)F)c(C#N)c(NCc3ccc(Cl)cc3)c2c1 [Compound Z38]
R. CCOC(=O)c1cnc2c(Cl)cc(Cl)cc2c1NCCCN(C)C [Compound Z35]
S. N#Cc1c(C(F)(F)F)nc2ccc(Cl)cc2c1N1CCOCC1 [Compound Z43]
Put the items in order so that reported Firefly ERalpha transient, cmpd/DMSO (mean) rises from first to last. Your task in answering is to list the labels in the requested order. Q, P, S, R
(Q: 0.5, P: 1.0, S: 1.6, R: 7.2)

A. Cc1cc(C)c2ncc(C(=O)OC(C)C)c(NCCCN(C)C)c2c1 [Compound Z29]
B. CCOC(=O)c1cnc2cc(C)c(C)cc2c1NCCCN(C)C [Compound Z34]
Quick one: lower Firefly ERalpha transient, cmpd/DMSO (mean), A or B ? Give the label under which the chosen entry appears. B

###

- measurement target: NR2F6 (Homo sapiens)
- Construct: expressed in transfected cells; also transient transfection
- experiment notes: NR2F6 agonist screening, Firefly signal cmpd/DMSO
- Assay type: cell-based
- measurement setup: C11 analogs follow set (Tables 2-10), repeat 1
readout name: Firefly, cmpd/DMSO repeat 1

Examples with their reported Firefly, cmpd/DMSO repeat 1 follow.
>>> result_value("O=c1oc2ccc(F)cc2cc1S(=O)(=O)c1ccccc1")
1.7
>>> result_value("COc1ccc2oc(=O)c(S(=O)(=O)c3cccc(Cl)c3)cc2c1")
4.5
>>> result_value("COc1ccc(S(=O)(=O)c2cc3ccccc3oc2=O)cc1")
4.5

A. N#Cc1cccc(S(=O)(=O)c2cc3cc(Br)ccc3oc2=O)c1
B. COc1ccccc1NC(=O)c1ccc2oc(=O)c(S(=O)(=O)c3ccccc3)cc2c1
Quick one: lower Firefly, cmpd/DMSO repeat 1, A or B ? Give the label under which the chosen entry appears. A
(A: 3.8, B: 17.7)

###

- measurement target: P-gp (MDR1) (Homo sapiens, UniProt P08183)
- Construct: endogenous in cells; host or cells: Caco-2
- Sequence (P08183 whole entry): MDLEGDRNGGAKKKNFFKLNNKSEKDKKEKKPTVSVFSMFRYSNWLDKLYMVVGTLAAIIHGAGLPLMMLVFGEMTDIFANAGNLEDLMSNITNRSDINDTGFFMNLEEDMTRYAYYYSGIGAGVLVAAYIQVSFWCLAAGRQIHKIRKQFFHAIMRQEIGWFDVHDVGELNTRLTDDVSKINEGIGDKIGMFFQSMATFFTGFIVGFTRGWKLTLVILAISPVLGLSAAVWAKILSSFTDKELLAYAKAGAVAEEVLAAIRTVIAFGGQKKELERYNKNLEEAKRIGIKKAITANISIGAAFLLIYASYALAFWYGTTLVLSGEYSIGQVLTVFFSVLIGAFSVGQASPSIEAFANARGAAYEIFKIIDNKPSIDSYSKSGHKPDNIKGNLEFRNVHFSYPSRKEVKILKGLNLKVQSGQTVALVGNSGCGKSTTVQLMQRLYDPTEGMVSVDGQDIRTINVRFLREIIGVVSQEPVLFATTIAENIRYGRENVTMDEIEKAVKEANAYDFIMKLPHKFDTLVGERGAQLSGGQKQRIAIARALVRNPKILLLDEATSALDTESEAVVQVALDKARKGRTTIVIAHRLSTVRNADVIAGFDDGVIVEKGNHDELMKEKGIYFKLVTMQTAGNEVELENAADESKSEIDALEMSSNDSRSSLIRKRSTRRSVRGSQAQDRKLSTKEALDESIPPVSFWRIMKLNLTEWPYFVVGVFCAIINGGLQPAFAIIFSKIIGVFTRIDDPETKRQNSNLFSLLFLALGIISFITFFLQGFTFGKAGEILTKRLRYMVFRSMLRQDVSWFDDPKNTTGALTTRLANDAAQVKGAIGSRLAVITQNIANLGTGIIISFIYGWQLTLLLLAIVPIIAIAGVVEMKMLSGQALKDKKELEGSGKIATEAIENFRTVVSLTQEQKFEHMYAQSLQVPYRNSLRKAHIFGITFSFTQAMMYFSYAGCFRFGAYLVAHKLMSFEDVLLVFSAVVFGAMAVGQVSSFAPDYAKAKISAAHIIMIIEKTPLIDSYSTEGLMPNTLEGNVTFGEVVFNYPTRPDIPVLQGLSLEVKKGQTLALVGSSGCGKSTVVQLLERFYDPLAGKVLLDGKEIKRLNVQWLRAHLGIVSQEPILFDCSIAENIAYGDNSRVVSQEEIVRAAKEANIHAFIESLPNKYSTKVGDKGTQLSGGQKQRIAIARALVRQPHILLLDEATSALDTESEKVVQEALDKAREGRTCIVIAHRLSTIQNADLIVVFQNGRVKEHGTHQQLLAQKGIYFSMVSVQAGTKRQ
- experiment notes: Caco-2 asymmetry, P-gp substrate
- Format: in vitro ADME
- measurement setup: human, Caco-2; Mean Papp B-A / A-B; read-out: Asymmetry Index
readout name: efflux ratio
Give only the figure.

Noted for COCCN[C@H]1CS(=O)(=O)C[C@@H]1S(=O)(=O)c1ccc(Cl)cc1 [Compound D136] : its efflux ratio reads 1.5

###

- measurement target: NR2F6 (Homo sapiens, UniProt P10588)
- Construct: expressed in transfected cells; also transient transfection
- Sequence (P10588 whole entry): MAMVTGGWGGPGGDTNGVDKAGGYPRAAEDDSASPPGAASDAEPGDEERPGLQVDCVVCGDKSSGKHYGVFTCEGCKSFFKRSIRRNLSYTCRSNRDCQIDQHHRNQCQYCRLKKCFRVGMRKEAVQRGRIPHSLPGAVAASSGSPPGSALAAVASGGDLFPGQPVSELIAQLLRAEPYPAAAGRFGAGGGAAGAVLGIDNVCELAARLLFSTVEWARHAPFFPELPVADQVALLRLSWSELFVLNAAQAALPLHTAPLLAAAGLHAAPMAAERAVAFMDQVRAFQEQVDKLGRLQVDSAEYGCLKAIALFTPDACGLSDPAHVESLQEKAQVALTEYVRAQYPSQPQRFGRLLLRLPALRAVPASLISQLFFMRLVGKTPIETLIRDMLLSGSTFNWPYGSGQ
- experiment notes: NR2F6 agonist screening, Firefly signal cmpd/DMSO
- Format: cell-based
- measurement setup: F4; 1% FBS; 0.5 uM
readout name: Firefly, F4, 1% FBS, cmpd/DMSO (mean)

>>> result_value("CC(=O)N1CCN([C@H]2CS(=O)(=O)C[C@@H]2S(=O)(=O)c2ccc(F)c(C)c2)CC1")
1.2

a. O=S1(=O)C[C@H](NC2CCCCC2)[C@@H](S(=O)(=O)c2ccc(Cl)cc2)C1
b. CCCCN[C@H]1CS(=O)(=O)C[C@@H]1S(=O)(=O)c1ccc(Cl)cc1
Quick one: lower Firefly, F4, 1% FBS, cmpd/DMSO (mean), a or b ? Give the label under which the chosen entry appears. a

1. COCCCN[C@H]1CS(=O)(=O)C[C@@H]1S(=O)(=O)c1ccc(Cl)cc1
2. O=S1(=O)C[C@H](NCCCc2ccccc2)[C@@H](S(=O)(=O)c2ccc(Cl)cc2)C1
Quick one: lower Firefly, F4, 1% FBS, cmpd/DMSO (mean), 1 or 2 ? Give the label under which the chosen entry appears. 1

1. CC(C)CCN[C@H]1CS(=O)(=O)C[C@@H]1S(=O)(=O)c1cccs1
2. O=S1(=O)C[C@H](N2CCCCC2)[C@@H](S(=O)(=O)c2ccc(Cl)cc2)C1
Quick one: lower Firefly, F4, 1% FBS, cmpd/DMSO (mean), 1 or 2 ? Give the label under which the chosen entry appears. 1
(1: 0.8, 2: 1.3)
